# Test system: DB02473
# assay_comment: Antibiotic MIC tests
# Type: cell-based
# run_parameters: 24 h; read-out: MIC, DB02473 24 hr
Catalogue of MIC readings, one per entry.

[
  {
    "compound": "O=C(O)c1cn(C2CC2)c2cc(N3CCNCC3)c(F)cc2c1=O [Ciprofloxacin]",
    "MIC": "≤ 0.06 µg/mL"
  },
  {
    "compound": "CN(C)c1ccc(O)c2c1C[C@H]1C[C@H]3[C@H](N(C)C)C(O)=C(C(N)=O)C(=O)[C@@]3(O)C(O)=C1C2=O [Minocycline]",
    "MIC": "0.125 µg/mL"
  },
  {
    "compound": "C[C@@H](O)[C@H]1C(=O)N2C(C(=O)O)=C(S[C@@H]3CN[C@H](C(=O)N(C)C)C3)[C@H](C)[C@H]12 [Meropenem]",
    "MIC": "≤ 0.06 µg/mL"
  },
  {
    "compound": "C/C(=C\\C(=O)OCCCCCCCCC(=O)O)C[C@@H]1OC[C@H](C[C@@H]2O[C@H]2[C@@H](C)[C@H](C)O)[C@@H](O)[C@H]1O [Mupirocin]",
    "MIC": "≤ 1 µg/mL"
  },
  {
    "compound": "[H]/N=C(\\N/C(=N/[H])NCCCCCCNC(=N)NC(=N)Nc1ccc(Cl)cc1)Nc1ccc(Cl)cc1 [Chlorhexidine]",
    "MIC": "1 µg/mL"
  },
  {
    "compound": "CCC[C@@H]1C[C@@H](C(=O)N[C@@H]([C@H]2O[C@H](SC)[C@H](O)[C@@H](O)[C@H]2O)[C@H](C)Cl)N(C)C1 [Clindamycin]",
    "MIC": "0.5 µg/mL"
  },
  {
    "compound": "C[C@H]1COc2c(N3CCN(C)CC3)c(F)cc3c(=O)c(C(=O)O)cn1c23 [Levofloxacin]",
    "MIC": "≤ 0.06 µg/mL"
  },
  {
    "compound": "CO/N=C(\\C(=O)N[C@@H]1C(=O)N2C(C(=O)[O-])=C(C[N+]3(C)CCCC3)CS[C@H]12)c1csc(N)n1 [Cefepime]",
    "MIC": "2 µg/mL"
  },
  {
    "compound": "NCC[C@H](O)C(=O)N[C@@H]1C[C@H](N)[C@@H](O[C@H]2O[C@H](CN)[C@@H](O)[C@H](O)[C@H]2O)[C@H](O)[C@H]1O[C@H]1O[C@H](CO)[C@@H](O)[C@H](N)[C@H]1O [Amikacin]",
    "MIC": "0.25 µg/mL"
  },
  {
    "compound": "CC[C@H]1OC(=O)[C@H](C)[C@@H](O[C@H]2C[C@@](C)(OC)[C@@H](O)[C@H](C)O2)[C@H](C)[C@@H](O[C@@H]2O[C@H](C)C[C@H](N(C)C)[C@H]2O)[C@](C)(O)C[C@@H](C)CN(C)[C@H](C)[C@@H](O)[C@]1(C)O [Azithromycin]",
    "MIC": "0.5 µg/mL"
  },
  {
    "compound": "CO/N=C(\\C(=O)N[C@@H]1C(=O)N2C(C(=O)O)=C(CSc3nc(=O)c(=O)[nH]n3C)CS[C@H]12)c1csc(N)n1 [Ceftriaxone]",
    "MIC": "4 µg/mL"
  },
  {
    "compound": "C[C@H]1[C@H](NC(=O)/C(=N\\OC(C)(C)C(=O)O)c2csc(N)n2)C(=O)N1S(=O)(=O)O [Aztreonam]",
    "MIC": "> 64 µg/mL"
  }
]

###

# System: DB10033
# assay_comment: Antibiotic MIC tests
# Type: cell-based, Bacillus altitudinis
# run_parameters: Bacillus altitudinis, 24 h, read-out: MIC, DB10033 24 hr
Catalogue of MIC readings, one per entry.

[
  {
    "smiles_record": "C[C@@H](O)[C@H]1C(=O)N2C(C(=O)O)=C(S[C@@H]3CN[C@H](C(=O)N(C)C)C3)[C@H](C)[C@H]12",
    "MIC": "≤ 0.06 µg/mL"
  },
  {
    "smiles_record": "C[C@H]1[C@H](NC(=O)/C(=N\\OC(C)(C)C(=O)O)c2csc(N)n2)C(=O)N1S(=O)(=O)O",
    "MIC": "> 64 µg/mL"
  },
  {
    "smiles_record": "C[C@H]1COc2c(N3CCN(C)CC3)c(F)cc3c(=O)c(C(=O)O)cn1c23",
    "MIC": "≤ 0.06 µg/mL"
  },
  {
    "smiles_record": "CC[C@H]1OC(=O)[C@H](C)[C@@H](O[C@H]2C[C@@](C)(OC)[C@@H](O)[C@H](C)O2)[C@H](C)[C@@H](O[C@@H]2O[C@H](C)C[C@H](N(C)C)[C@H]2O)[C@](C)(O)C[C@@H](C)C(=O)[C@H](C)[C@@H](O)[C@]1(C)O",
    "MIC": "≤ 0.06 µg/mL"
  }
]
